Recorded Binding Avidity (Relative to Orencia) values for a group of binders are listed next.
- Experimental system: T1, human CD86-murine Ig fusion protein (human)
- T1 construct: Bought (Ancell #509-820); also called hCD86-mIg
- T1 chain: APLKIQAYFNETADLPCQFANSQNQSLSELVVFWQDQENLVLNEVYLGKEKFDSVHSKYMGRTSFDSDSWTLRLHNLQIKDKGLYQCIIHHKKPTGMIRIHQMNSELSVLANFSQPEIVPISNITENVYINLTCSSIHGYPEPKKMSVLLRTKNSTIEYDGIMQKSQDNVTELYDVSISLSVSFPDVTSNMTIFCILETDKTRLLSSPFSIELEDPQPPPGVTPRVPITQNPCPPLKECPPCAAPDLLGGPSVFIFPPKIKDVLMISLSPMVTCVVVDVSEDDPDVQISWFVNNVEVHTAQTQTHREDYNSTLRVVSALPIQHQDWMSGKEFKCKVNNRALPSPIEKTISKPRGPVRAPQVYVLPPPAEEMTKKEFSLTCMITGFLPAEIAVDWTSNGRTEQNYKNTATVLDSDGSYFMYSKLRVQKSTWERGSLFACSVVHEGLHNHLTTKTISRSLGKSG
- Method notes: SPR Biacore, hCD86-mIg captured

Consider the reported Binding Avidity (Relative to Orencia) for these binders:
binder="D3-69-IgG2 (Fc fusion) MHVAQPAVVLASSRGIASFVCEYESPGKANEIRVTVLRQADSQVTEVCAMTYMKGDELTFLDDPSCTGTFSGNQVNLTIQGLRAMDTGLYICKVELMYPPPYYEGIGNGTQIYVIDPEPCPDSDERKCCVECPPCPAPPVAGPSVFLFPPKPKDTLMISRTPEVTCVVVDVSHEDPEVQFNWYVDGVEVHNAKTKPREEQFNSTFRVVSVLTVVHQDWLNGKEYKCKVSNKGLPAPIEKTISKTKGQPREPQVYTLPPSREEMTKNQVSLTCLVKGFYPSDIAVEWESNGQPENNYKTTPPMLDSDGSFFLYSKLTVDKSRWQQGNVFSCSVMHEALHNHYTQKSLSLSPG" parameter="Binding Avidity (Relative to Orencia)" data_value="> 40 fold"
binder="D3-74-IgG2 (Fc fusion) MHVAQPAVVLASSRGIASFVCEYASPGKANEIRVTVLRQADSQVTEVCAMTYMKGNELTFLDDPICTGTFSGNQVNLTIQGLRAMDTGLYICKVELMYPPPYYEGIGNGTQIYVIDPEPCPDSDERKCCVECPPCPAPPVAGPSVFLFPPKPKDTLMISRTPEVTCVVVDVSHEDPEVQFNWYVDGVEVHNAKTKPREEQFNSTFRVVSVLTVVHQDWLNGKEYKCKVSNKGLPAPIEKTISKTKGQPREPQVYTLPPSREEMTKNQVSLTCLVKGFYPSDIAVEWESNGQPENNYKTTPPMLDSDGSFFLYSKLTVDKSRWQQGNVFSCSVMHEALHNHYTQKSLSLSPG" parameter="Binding Avidity (Relative to Orencia)" data_value="> 40 fold"

Switching to the query record.
Inquiry: State the recorded Binding Avidity (Relative to Orencia) for this entry: D3-9-IgG2 (Fc fusion) MHVAQPAVVLASSRGIASFVCEYESPGKANEIRVTVLRQAGSQVTEVCAMTYMKGDELTFLDDPICTGTFSGNQVNLTIQGLRAADTGLYICKVELMYPPPYYLGFGNGTQIYVIDPEPCPDSDERKCCVECPPCPAPPVAGPSVFLFPPKPKDTLMISRTPEVTCVVVDVSHEDPEVQFNWYVDGVEVHNAKTKPREEQFNSTFRVVSVLTVVHQDWLNGKEYKCKVSNKGLPAPIEKTISKTKGQPREPQVYTLPPSREEMTKNQVSLTCLVKGFYPSDIAVEWESNGQPENNYKTTPPMLDSDGSFFLYSKLTVDKSRWQQGNVFSCSVMHEALHNHYTQKSLSLSPG
Reply text: > 40 fold

Every entry's value here was drawn from patent US20110177071A1.
